test system: 1459 cells; test: Cell viability assay (CCK-8); type: cell-based; settings: Homo sapiens; 1459, Colon; Supplemental Table 4

molecule	IC50 (µM)
COc1ccc(C2C(C#N)=C(N)Oc3[nH]ncc32)cc1COc1ccc(Cl)cc1 (stereo not shown)	32.5

---

biological target: 20S proteasome (Homo sapiens, UniProt P25786+P25788); experiment: Surface plasmon resonance assay (Biacore T200); settings: steady-state affinity model (1:1)

molecule	Kd
COc1ccc(C2C(C#N)=C(N)Oc3[nH]ncc32)cc1COc1ccc(Cl)cc1 (stereo not shown)	11.6 µM

---

system: T24 cells; assay: Cell viability assay (CCK-8); type: cell-based; conditions: Homo sapiens, T-24; T24, Bladder; Supplemental Table 4
pIC50: −log10 of the molar value.

compound	pIC50
COc1ccc(C2C(C#N)=C(N)Oc3[nH]ncc32)cc1COc1ccc(Cl)cc1 (stereo not shown)	5.00

---

system: H1299 cells; test: Cell viability assay (CCK-8); assay type: cell-based; conditions: Homo sapiens, NCI-H1299; H1299, Lung; Supplemental Table 4
experimentalReadout: IC50 (µM)

molecule	quantitativeResult
COc1ccc(C2C(C#N)=C(N)Oc3[nH]ncc32)cc1COc1ccc(Cl)cc1 (stereo not shown)	13.5

---

tested on: HPNE cells; assay: Cell viability assay (CCK-8); format: cell-based; conditions: Homo sapiens; HPNE (Normal cells); 72 hours

compound	experimentalSystem	unitText	IC50
COc1ccc(C2C(C#N)=C(N)Oc3[nH]ncc32)cc1COc1ccc(Cl)cc1 (stereo not shown) [RLY01]	HPNE cells	µM	68.7

---

system: HCC4006 cells; test: Cell viability assay (CCK-8); type: cell-based; details: Homo sapiens; HCC4006 (KRAS-WT); 72 hours

molecule	experimentalSystem	IC50 / µM
COc1ccc(C2C(C#N)=C(N)Oc3[nH]ncc32)cc1COc1ccc(Cl)cc1 (stereo not shown) [RLY01]	HCC4006 cells	32.3

---

system: HCT15 cells; assay: Cell viability assay (CCK-8); format: cell-based; details: Homo sapiens, HCT-15; HCT15 (KRAS-MUT); 72 hours

molecule	experimentalSystem	unitText	IC50
COc1ccc(C2C(C#N)=C(N)Oc3[nH]ncc32)cc1COc1ccc(Cl)cc1 (stereo not shown)	HCT15 cells	µM	5.53

---

system: H3122 cells; test: Cell viability assay (CCK-8); type: cell-based; conditions: Homo sapiens, NCI-H3122; H3122, Lung; Supplemental Table 4
pIC50: −log10 of the molar value.
experimentalReadout: pIC50

compound	quantitativeResult
COc1ccc(C2C(C#N)=C(N)Oc3[nH]ncc32)cc1COc1ccc(Cl)cc1 (stereo not shown)	4.50

---

tested on: SW620 cells; assay: Cell viability assay (CCK-8); assay type: cell-based; conditions: Homo sapiens, SW-620; SW620, Colon; Supplemental Table 4
pIC50: −log10 of the molar value.
experimentalReadout: pIC50

molecule	quantitativeResult
COc1ccc(C2C(C#N)=C(N)Oc3[nH]ncc32)cc1COc1ccc(Cl)cc1 (stereo not shown)	5.22

---

test system: PC3 cells; test: Cell viability assay (CCK-8); format: cell-based; settings: Homo sapiens, PC-3; PC3, Prostate; Supplemental Table 4
pIC50: −log10 of the molar value.
experimentalReadout: pIC50

compound	experimentalReadout	quantitativeResult
COc1ccc(C2C(C#N)=C(N)Oc3[nH]ncc32)cc1COc1ccc(Cl)cc1 (stereo not shown)	pIC50	4.89
